Target: UniProt P08183
Sequence (P08183 whole entry): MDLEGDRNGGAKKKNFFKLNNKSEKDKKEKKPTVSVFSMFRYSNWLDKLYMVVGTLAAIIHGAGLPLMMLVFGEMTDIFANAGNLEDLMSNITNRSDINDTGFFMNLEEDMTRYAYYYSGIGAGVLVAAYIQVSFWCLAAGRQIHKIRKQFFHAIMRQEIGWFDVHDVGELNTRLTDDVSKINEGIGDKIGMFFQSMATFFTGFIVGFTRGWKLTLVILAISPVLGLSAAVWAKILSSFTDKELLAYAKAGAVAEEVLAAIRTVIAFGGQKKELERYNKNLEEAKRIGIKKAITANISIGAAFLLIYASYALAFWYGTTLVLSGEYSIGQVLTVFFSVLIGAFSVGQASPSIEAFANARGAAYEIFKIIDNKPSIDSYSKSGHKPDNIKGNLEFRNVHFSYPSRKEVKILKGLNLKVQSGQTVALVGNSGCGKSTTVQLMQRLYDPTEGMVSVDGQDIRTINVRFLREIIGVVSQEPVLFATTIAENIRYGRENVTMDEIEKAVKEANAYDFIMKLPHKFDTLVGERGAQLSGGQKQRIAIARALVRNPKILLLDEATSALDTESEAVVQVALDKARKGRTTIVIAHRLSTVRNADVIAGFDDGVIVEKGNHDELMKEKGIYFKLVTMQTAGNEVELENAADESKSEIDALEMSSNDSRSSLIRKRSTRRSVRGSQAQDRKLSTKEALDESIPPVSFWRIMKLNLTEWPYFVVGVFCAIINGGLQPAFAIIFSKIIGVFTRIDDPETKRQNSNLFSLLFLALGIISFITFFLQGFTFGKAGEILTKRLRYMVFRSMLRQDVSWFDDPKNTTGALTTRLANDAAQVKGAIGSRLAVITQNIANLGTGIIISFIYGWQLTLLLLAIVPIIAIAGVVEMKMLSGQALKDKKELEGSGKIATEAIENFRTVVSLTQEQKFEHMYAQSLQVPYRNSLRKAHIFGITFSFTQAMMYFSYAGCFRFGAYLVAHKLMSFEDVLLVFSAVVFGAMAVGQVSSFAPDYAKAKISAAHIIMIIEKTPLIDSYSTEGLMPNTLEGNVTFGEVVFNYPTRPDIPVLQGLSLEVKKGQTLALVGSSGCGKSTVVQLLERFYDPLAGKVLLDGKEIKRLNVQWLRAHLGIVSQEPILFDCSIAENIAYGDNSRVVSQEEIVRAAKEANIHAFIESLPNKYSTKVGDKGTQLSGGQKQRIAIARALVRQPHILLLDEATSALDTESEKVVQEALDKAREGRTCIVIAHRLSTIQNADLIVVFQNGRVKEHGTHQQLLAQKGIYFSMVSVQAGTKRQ
Assay: Bidirectional transport assay of single components (substrate assay), with or without verapamil
Type: in vitro ADME
Settings: dog, MDCK-MDR1, Single Component + Verapamil Group, n = 3
Method: Before experiments, cell monolayers were washed twice with HBSS and equilibrated with HBSS for 30 min at 37 °C. […] The amount of seven constituents of AR was determined by LC-MS/MS. The apparent permeability (Papp) of each substrate across MDCK-MDR1 cell monolayers in both the basolateral to apical (B > A) and apical to basolateral (A > B) directions were calculated using the following formula: […]

- COMPOUND: "C[C@H]1CC[C@@]2(OC1)O[C@H]1C[C@H]3[C@@H]4CC[C@@H]5C[C@@H](O)CC[C@]5(C)[C@H]4CC[C@]3(C)[C@H]1[C@@H]2C [SSG, sarsasapogenin]"
  Papp B→A at 2 h (×10⁻⁶ cm/s): 0.0374
